Below is a list of entries, each paired with its recorded pKi value.
- target.or.test.system: human FAAH (Homo sapiens)
- Sequence (O00519 1-579): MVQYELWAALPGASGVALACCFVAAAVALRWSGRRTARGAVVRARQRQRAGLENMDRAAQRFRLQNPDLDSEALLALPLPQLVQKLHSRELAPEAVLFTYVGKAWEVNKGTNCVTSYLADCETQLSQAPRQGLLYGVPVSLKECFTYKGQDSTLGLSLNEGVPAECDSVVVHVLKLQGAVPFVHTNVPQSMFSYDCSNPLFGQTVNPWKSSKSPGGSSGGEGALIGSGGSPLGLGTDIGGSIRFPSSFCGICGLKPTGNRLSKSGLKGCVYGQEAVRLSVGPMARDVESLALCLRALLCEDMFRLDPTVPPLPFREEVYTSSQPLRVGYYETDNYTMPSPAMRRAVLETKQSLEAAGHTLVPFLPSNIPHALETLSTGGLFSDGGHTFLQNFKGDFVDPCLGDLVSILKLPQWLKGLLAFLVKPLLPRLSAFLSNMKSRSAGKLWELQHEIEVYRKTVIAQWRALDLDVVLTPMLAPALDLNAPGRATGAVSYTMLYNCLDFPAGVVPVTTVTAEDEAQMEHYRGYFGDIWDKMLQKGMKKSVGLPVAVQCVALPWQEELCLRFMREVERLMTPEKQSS
pKi: −log10 of the molar value.

Example results:
• CS(=O)(=O)NC(=O)c1ccc(OC2=NOC(c3ccc(OC(F)(F)F)cc3)C2)cn1 (racemic) [I-220] = ≥ 7.00
• FC(F)(F)Oc1ccc(C2CC(Oc3ccc(-c4cnn[nH]4)nc3)=NO2)cc1 (racemic) [I-236] = ≥ 7.00
• CN(C)S(=O)(=O)c1ccc([C@H]2CC(Br)=NO2)cc1 (racemic) [I-206] = ≥ 7.00
• COc1ncc(OC2=NOC(c3ccc(OC(F)(F)F)cc3)C2)cc1F (racemic) [I-136] = 6.00 to 7.00
• BrC1=NOC(c2ccc(Oc3ncccn3)cc2)C1 (single isomer, unassigned) [I-13] = ≥ 7.00

Item CC(C)(C)OC(=O)Nc1ccc(OC2=NOC(c3ccc(Oc4ccccc4)cc3)C2)cn1 (racemic) [I-92] has what recorded pKi?
≤ 6.00

Then c1ccc(Oc2ccc(C3CC(n4cncn4)=NO3)cc2)cc1 (single isomer, unassigned) [I-34] ?
≤ 6.00

Then Fc1cncc(OC2=NOC(c3ccc(Oc4ccccc4)cc3)C2)c1 (single isomer, unassigned) [I-43] ?
≥ 7.00

Then FC(F)(F)Oc1ccc(C2CC(Br)=NO2)cc1 (racemic) [I-14] ?
≥ 7.00

Then COC(=O)c1ccc(OC2=NOC(c3ccc(Oc4ccccc4)cc3)C2)cc1 (racemic) [I-62] ?
≥ 7.00

Then O=S(=O)(c1ccc([C@H]2CC(Br)=NO2)cc1)N1CCCCC1 (racemic) [I-210] ?
≥ 7.00

Then COC(=O)c1cncc(OC2=NOC(c3ccc(Oc4ccccc4)cc3)C2)c1 (single isomer, unassigned) [I-39] ?
≥ 7.00

Then CC1(c2ccc(OC(F)(F)F)cc2)CC(Oc2ccc(S(C)(=O)=O)cc2)=NO1 (racemic) [I-234] ?
6.00 to 7.00

---

Below is a list of entries, each paired with its recorded Ki value.
- target.or.test.system: human FAAH (Homo sapiens)

Example results:
- O=C(OCc1ccccc1)c1ccc(C2CC(Br)=NO2)cc1 (single isomer, unassigned): ≤ 100 nM
- FC(F)(F)Oc1ccc(C2CC(Oc3cccc(-c4nnn[nH]4)c3)=NO2)cc1 (racemic): 100 to 1000 nM
- Cc1nnc(-c2ccc(OC3=NOC(c4ccc(Oc5ccccc5)cc4)C3)cn2)o1 (racemic): ≤ 100 nM
- c1ccc(Oc2ccc(C3CC(Oc4ccncc4)=NO3)cc2)cc1 (single isomer, unassigned): ≥ 1000 nM
- O=C(O)c1ccc(-c2ccc(OC3=NOC(c4ccc(OC(F)(F)F)cc4)C3)cn2)s1 (racemic): 100 to 1000 nM

Item Cc1nnc(-c2ccc(OC3=NOC(c4ccc(C(F)(F)F)cc4)C3)cn2)o1 (racemic) has what recorded Ki?
≤ 100 nM

Then FC(F)(F)c1ccc(C2CC(Oc3ccc(Br)nc3)=NO2)cc1 (racemic) ?
100 to 1000 nM
